Just for reference, patent US8501744B2 is where these values come from.

I'd appreciate it if you could supply Ki values for the items below.
# TARGET: Human recombinant cathepsin K (Homo sapiens (Human), UniProt P43235)
# Sequence (P43235 115-329): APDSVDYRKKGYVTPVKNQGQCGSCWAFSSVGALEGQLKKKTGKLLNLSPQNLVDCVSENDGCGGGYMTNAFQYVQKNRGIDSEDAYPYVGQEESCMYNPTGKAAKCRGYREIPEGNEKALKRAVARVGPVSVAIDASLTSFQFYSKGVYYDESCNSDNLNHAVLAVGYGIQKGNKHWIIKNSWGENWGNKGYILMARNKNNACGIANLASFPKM
# METHOD_NOTES: In vitro cathepsin Ki inhibition measurements
# Type: biochemical
# EXPERIMENTAL_CONTEXT: human recombinant cathepsin K, pH 5.5, Z-Leu-Arg-AMC substrate; read-out: In vitro Ki (nM) vs Cath K
Your answer is read as nM, so omit the unit and give the number.

For the molecule CC(C)C[C@H](NC(=O)c1ccc(-c2csc(N3CCN(C)CC3)n2)cc1)C(=O)N1C[C@@H](C)[C@H]2OCC(=O)[C@H]21 , what Ki is on record?
0.7

For the molecule CC(C)C[C@H](NC(=O)c1ccc(N2CCN(C)CC2)cc1)C(=O)N1C[C@H](C)[C@H]2OCC(=O)[C@H]21 , what Ki is on record?
0.75

For the molecule CC(C)[C@H]1CN(C(=O)[C@@H](NC(=O)c2ccc(N3CCN(C)CC3)cc2)C2CCCC2)[C@@H]2C(=O)CO[C@H]12 , what Ki is on record?
0.45
